Reference source: ChEMBL document CHEMBL4265893

# measured.on: Peptidyl-prolyl cis-trans isomerase NIMA-interacting 1 (Homo sapiens, UniProt Q13526)
# Sequence (Q13526 whole entry): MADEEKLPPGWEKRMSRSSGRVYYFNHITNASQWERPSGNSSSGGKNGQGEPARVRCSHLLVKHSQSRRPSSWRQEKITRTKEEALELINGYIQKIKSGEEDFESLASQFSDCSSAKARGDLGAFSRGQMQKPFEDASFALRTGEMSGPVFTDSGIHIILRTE
# protocol: Inhibition of recombinant N-terminal His6-tagged human Pin1 using Suc-Ala-Glu-cis-Pro-Phe-4-nitroanilide as substrate preincubated for 30 mins followed by substrate addition measured for 90 secs
measure: IC50 (nM)

Answered cases to consult:
substance.smiles: C[C@H]1[C@H](C)CC[C@]2(C)CC[C@]3(C)C(=CC(=O)[C@@H]4[C@@]5(C)C/C(=C\C(=O)O)C(=O)[C@](C)(C(=O)N6CCOCC6)[C@@H]5CC[C@]43C)[C@H]12
value.reported: 2680
--
substance.smiles: C[C@H]1[C@H](C)CC[C@]2(C)CC[C@]3(C)C(=CC(=O)[C@@H]4[C@@]5(C)C/C(=C\c6ccccc6C(=O)O)C(=O)[C@](C)(C(=O)OCc6ccccc6)[C@@H]5CC[C@]43C)[C@H]12
value.reported: 680
--
substance.smiles: C[C@H]1[C@H](C)CC[C@]2(C)CC[C@]3(C)C(=CC(=O)[C@@H]4[C@@]5(C)CC[C@@H](OC(=O)COc6ccc(C(=O)/C=C/c7ccccc7)cc6)[C@](C)(C(=O)O)[C@@H]5CC[C@]43C)[C@H]12
value.reported: 970

1. C[C@H]1[C@H](C)CC[C@]2(C)CC[C@]3(C)C(=CC(=O)[C@@H]4[C@@]5(C)CC[C@@H](OC(=O)CN6CCCCC6)[C@](C)(C(=O)O)[C@@H]5CC[C@]43C)[C@H]12
2. C[C@H]1[C@H](C)CC[C@]2(C)CC[C@]3(C)C(=CC(=O)[C@@H]4[C@@]5(C)CC[C@@H](OC(=O)COc6ccc(Oc7ccccc7)cc6)[C@](C)(C(=O)O)[C@@H]5CC[C@]43C)[C@H]12
stdin: Recorded IC50 values differ for 1 and 2 ; which one is higher? Give the label under which the chosen entry appears.
stdout: 2
(2: 1580 nM, 1: 1010 nM)
